biological target: sigma-1 binding site (Cavia porcellus); construct: Guinea pig whole membrane preparations (P2 microsomal fraction); from tissue; host or cells: guinea pig membranes (P2 microsomal fraction), as described by Weber et al; brain inferred from the sister test b489; assay: biochemical; design: species or system guinea pig; details: Table 10; read-out: SIGMA-1 KI vs. 3H-PENTAZOCINE MEAN
Sequence (Q60492 whole entry): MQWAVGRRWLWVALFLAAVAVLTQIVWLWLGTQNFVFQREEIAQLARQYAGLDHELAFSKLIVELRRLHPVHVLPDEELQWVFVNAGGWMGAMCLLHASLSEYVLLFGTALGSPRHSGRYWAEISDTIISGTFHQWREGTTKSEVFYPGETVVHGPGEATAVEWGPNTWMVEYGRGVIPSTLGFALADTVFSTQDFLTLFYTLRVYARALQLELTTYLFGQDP
log10(Ki) listing for selected compounds.
Measure name: log10(Ki) (log10 of the value in nM)

>  <Compound>
CN1CCN(CC/C=C\c2cccc(C(F)(F)F)c2)CC1

>  <log10(Ki)>
0.18

$$$$
>  <Compound>
C[C@H](Cc1ccccc1)NCCCc1ccc2ccccc2c1

>  <log10(Ki)>
0.76

$$$$
>  <Compound>
CC(Cc1ccc(I)cc1)NCCCc1ccccc1 (racemic)

>  <log10(Ki)>
1.25

$$$$
>  <Compound>
CN(CCCc1ccc2ccccc2c1)CCCc1ccc2ccccc2c1

>  <log10(Ki)>
1.48

$$$$
>  <Compound>
c1ccc(CCCCNCc2ccccc2)cc1

>  <log10(Ki)>
0.98

$$$$
>  <Compound>
CCCC(N)Cc1ccccc1 (racemic) [Compound 34, (±) 1-Phenyl-2-aminopentane]

>  <log10(Ki)>
3.07

$$$$
>  <Compound>
O=C(c1ccccc1)N1CCN(CCCCc2ccccc2)CC1

>  <log10(Ki)>
1.86

$$$$
>  <Compound>
CCCN1CCN(c2ccccc2)CC1

>  <log10(Ki)>
1.91

$$$$
>  <Compound>
c1ccc(CCCCCNCc2ccccc2)cc1

>  <log10(Ki)>
-0.49

$$$$
>  <Compound>
O=C1c2ccccc2C(=O)N1CCCCN1CCN(c2ccccc2)CC1

>  <log10(Ki)>
2.29

$$$$
>  <Compound>
NCCCCCC1CCCCC1.O=C(O)C(=O)O [Compound 126, 5-Cyclohexylpentylamine Hydrogen Oxalate]

>  <log10(Ki)>
2.28

$$$$
>  <Compound>
c1ccc(CCCCCN2CCC(Cc3ccccc3)CC2)cc1

>  <log10(Ki)>
-0.24

$$$$

----------
Ratio 5-HT1A /σ listing for selected compounds.
target: 5-HT1A receptor (Rattus norvegicus, UniProt P19327); experiment: biochemical; type: binding; set-up: 47: 529-540 (1986); from tissue; host or cells: brain tissue, inferred from the cited method (rat frontal cortex); conditions: Table 5

>  <Compound>
CC(NCCCc1ccccc1)C(=O)c1ccccc1 (stereo not shown) [Compound 13]

>  <Ratio 5-HT1A /σ>
2

$$$$
>  <Compound>
C[C@H](Cc1ccccc1)NCCCc1ccc2ccccc2c1 [Compound 12]

>  <Ratio 5-HT1A /σ>
56

$$$$
>  <Compound>
CC(Cc1cccc(C(F)(F)F)c1)NCCCc1ccccc1 (racemic) [Compound 23]

>  <Ratio 5-HT1A /σ>
25

$$$$
>  <Compound>
C[C@H](Cc1ccccc1)NCCCc1cccc2ccccc12 [Compound 11]

>  <Ratio 5-HT1A /σ>
11

$$$$
>  <Compound>
c1ccc(CCNCCCc2ccc3ccccc3c2)cc1 [Compound 41]

>  <Ratio 5-HT1A /σ>
7.6

$$$$
>  <Compound>
CC(Cc1cccc(Br)c1)NCCCc1ccccc1 (racemic) [Compound 20]

>  <Ratio 5-HT1A /σ>
17

$$$$
>  <Compound>
CCCC(N)Cc1ccccc1 (racemic) [Compound 34, (±) 1-Phenyl-2-aminopentane]

>  <Ratio 5-HT1A /σ>
2.6

$$$$
>  <Compound>
C[C@@H](Cc1ccccc1)N(C)CCc1ccccc1 [Compound 36]

>  <Ratio 5-HT1A /σ>
239

$$$$
>  <Compound>
CCN[C@H](C)Cc1ccccc1 [Compound 4]

>  <Ratio 5-HT1A /σ>
5.9

$$$$
>  <Compound>
Clc1ccc(C2=CCN(CCCCc3ccccc3)CC2)cc1 [Compound 38]

>  <Ratio 5-HT1A /σ>
25

$$$$
>  <Compound>
FC(F)(F)c1cccc(N2CCN(CCc3ccccc3)CC2)c1 [Compound 37]

>  <Ratio 5-HT1A /σ>
2.6

$$$$
>  <Compound>
CC(Cc1ccccc1)NCCCCc1ccccc1 (racemic) [Compound 10]

>  <Ratio 5-HT1A /σ>
22

$$$$
>  <Compound>
C[C@@H](Cc1ccccc1)NCCc1ccccc1 [Compound 27]

>  <Ratio 5-HT1A /σ>
200

$$$$
>  <Compound>
c1ccc(CCCN2CCC(c3ccccc3)CC2)cc1 [Compound 39]

>  <Ratio 5-HT1A /σ>
75

$$$$
>  <Compound>
C[C@H](Cc1ccccc1)NCCC(=O)c1ccccc1 [Compound 9]

>  <Ratio 5-HT1A /σ>
2

$$$$
>  <Compound>
C[C@H](Cc1ccccc1)NCc1ccccc1 [Compound 6]

>  <Ratio 5-HT1A /σ>
31

$$$$
>  <Compound>
c1ccc(CN2CCOC(c3ccccc3)C2)cc1 (stereo not shown) [Compound 35]

>  <Ratio 5-HT1A /σ>
40

$$$$
>  <Compound>
CC(Cc1ccccc1)NCC1CC1 (stereo not shown) [Compound 24]

>  <Ratio 5-HT1A /σ>
1.4

$$$$

----------
Target: 5-HT1A receptor (Rattus norvegicus, UniProt P19327)
Sequence (P19327 1-422): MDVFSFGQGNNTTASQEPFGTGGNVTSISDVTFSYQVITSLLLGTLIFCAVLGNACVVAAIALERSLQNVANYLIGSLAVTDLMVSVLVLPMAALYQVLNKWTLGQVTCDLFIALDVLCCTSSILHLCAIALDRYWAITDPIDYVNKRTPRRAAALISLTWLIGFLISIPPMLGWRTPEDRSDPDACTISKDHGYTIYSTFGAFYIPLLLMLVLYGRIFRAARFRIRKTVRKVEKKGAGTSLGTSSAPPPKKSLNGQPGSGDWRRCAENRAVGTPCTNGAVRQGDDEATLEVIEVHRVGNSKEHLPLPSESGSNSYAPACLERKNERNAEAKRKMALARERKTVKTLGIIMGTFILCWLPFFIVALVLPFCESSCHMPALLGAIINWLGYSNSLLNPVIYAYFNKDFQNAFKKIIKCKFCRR
Assay: biochemical
Format: binding
Set-up: 47: 529-540 (1986); from tissue; host or cells: brain tissue, inferred from the cited method (rat frontal cortex)
Conditions: Table 5
Ratio 5-HT1A /σ listing for selected compounds.

>  <Compound>
Clc1cccc(N2CCN(CCc3ccccc3)CC2)c1

>  <Ratio 5-HT1A /σ>
.80

$$$$
>  <Compound>
C[C@H](Cc1ccccc1)NCCOc1ccccc1

>  <Ratio 5-HT1A /σ>
.92

$$$$
>  <Compound>
c1ccc(CCCNC2CCc3ccccc3C2)cc1 (stereo not shown)

>  <Ratio 5-HT1A /σ>
.92

$$$$
>  <Compound>
CCCN[C@H](C)Cc1ccccc1

>  <Ratio 5-HT1A /σ>
.88

$$$$
